Measured Km of individual entries
tested on: acyl-CoA synthetase I; test: Specificity for acyl acceptors (Vmax and apparent Km); type: biochemical, Candida lipolytica; details: acyl acceptor
// units = µM; emit number, no label

# count of solved cases: 3
| cpd-smiles | u | Km |
| --- | --- | --- |
| CC(C)(COP(=O)(O)O)[C@@H](O)C(=O)NCCC(=O)NCCS | µM | 3300 |
| CC(C)(COP(=O)(O)OP(=O)(O)OC[C@H]1O[C@@H](n2cnc3c(N)ncnc32)[C@H](O)[C@@H]1O)[C@@H](O)C(=O)NCCC(=O)NCCS | µM | 110 |
| CC(C)(COP(=O)(O)OP(=O)(O)OC[C@H]1O[C@@H](n2cnc3c(N)ncnc32)[C@H](O)[C@@H]1OP(=O)(O)O)[C@@H](O)C(=O)NCCC(=O)NCCS | µM | 42 |

Q. For the compound shown here, CC(C)(CO)[C@@H](O)C(=O)NCCC(=O)NCCS , give the reported Km.
A. 2500

Q. For the compound shown here, CC(C)(COP(=O)(O)OP(=O)(O)OC[C@H]1O[C@@H](n2cnc3c2ncn2ccnc32)[C@H](O)[C@@H]1OP(=O)(O)O)[C@@H](O)C(=O)NCCC(=O)NCCS , give the reported Km.
A. 500

* * *

test system: acyl-CoA synthetase; experiment: Substrate specificity of acyl-CoA synthetase (fatty acids); type: biochemical, Candida lipolytica; conditions: fatty acid concentration 0.125 mM
Measured Activity (μmol acyl-CoA/min.) of individual entries
// units = μmol acyl-CoA/min.; emit number, no label

# count of solved cases: 2
| cpd-smiles | target-desc | Activity (μmol acyl-CoA/min.) |
| --- | --- | --- |
| CCCCCCCCCCCCCCCCC(=O)O | acyl-CoA synthetase | 22.3 |
| CCCCC/C=C\C/C=C\C/C=C\C/C=C\CCCC(=O)O | acyl-CoA synthetase | 1.3 |

Q. For the molecule shown here, CCCCCC/C=C\CCCCCCCC(=O)O , give the reported Activity (μmol acyl-CoA/min.).
A. 19.8

Q. For the molecule shown here, CCCCCCCCCCCCC(=O)O , give the reported Activity (μmol acyl-CoA/min.).
A. 1.3

* * *

Measured Vmax of individual entries
System: acyl-CoA synthetase I
Test: Specificity for acyl acceptors (Vmax and apparent Km)
Type: biochemical, Candida lipolytica
Conditions: acyl acceptor; CoA designated as 100%
Method: The sssay of enzyme activity was carried out by the Banis and Tove method. (See Biochemica et Biophysica Acta, Vol. 348, pages 210-220 (1974)). […] After the aqueous layer was washed twice each with 2 ml of heptane containing 8 mg of palmitic acid, the radioactivity of the aqueous layer was measured. […]
// units = %; emit number, no label

| compound | Vmax, % |
| --- | --- |
| CC(C)(COP(=O)(O)O)[C@@H](O)C(=O)NCCC(=O)NCCS [4'-Phosphopantetheine] | 63 |
| CC(C)(COP(=O)(O)OP(=O)(O)OC[C@H]1O[C@@H](n2cnc3c2ncn2ccnc32)[C@H](O)[C@@H]1OP(=O)(O)O)[C@@H](O)C(=O)NCCC(=O)NCCS [1:^6 N-Etheno-CoA] | 40 |
| CC(C)(COP(=O)(O)OP(=O)(O)OC[C@H]1O[C@@H](n2cnc3c(N)ncnc32)[C@H](O)[C@@H]1OP(=O)(O)O)[C@@H](O)C(=O)NCCC(=O)NCCS [CoA] | 100 |
| CC(C)(CO)[C@@H](O)C(=O)NCCC(=O)NCCS [Pantetheine] | 57 |

Q. For the compound shown here, CC(C)(COP(=O)(O)OP(=O)(O)OC[C@H]1O[C@@H](n2cnc3c(N)ncnc32)[C@H](O)[C@@H]1O)[C@@H](O)C(=O)NCCC(=O)NCCS [Dephospho-CoA] , give the reported Vmax.
A. 70
